test: inhibitors of Cryptococcus chitosan production, flow cytometry, Cibacron Brilliant Red staining (AID 1347148); conditions: Cryptococcus neoformans chitosan, hits give low values; at 10 µM unless noted;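 further: compound exposure lasted three days at 37 degrees C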
Activity calls are given as the source filed them. How the calls were made is not given here.
# Lookup of reported fold fluorescence keyed by entry

q: Fill in fold fluorescence for record `Nc1ccncc1`
a: 3.69 [at 531.3 µM] (inactive)

q: Fill in fold fluorescence for record `NCCc1c[nH]c2ccc(O)cc12`
a: 4 [at 283.7 µM] (inactive)

q: Fill in fold fluorescence for record `C#CCN(C)[C@@H](C)Cc1ccccc1`
a: 5.04 [at 267 µM] (inactive)

q: Fill in fold fluorescence for record COC[C@H]([C@@H](O)[C@@H](O)C(=O)NCC[C@@H](C)c1nc(/C=C/C[C@H]2OC3(C[C@H](O)[C@H]2C)OC([C@@H](C[C@@H](O)[C@@H](C)[C@@H](O)[C@@H](C)/C=C(C)/C(C)=C/C=C/C(C)=C\C#N)OC)[C@@H](OP(=O)(O)O)C3(C)C)co1)N(C)C (stereo partly drawn)
a: 9.76 [at 5 µM] (inactive)

q: Fill in fold fluorescence for record `CCCC[C@H](C)[C@H](OC(=O)C[C@H](CC(=O)O)C(=O)O)[C@@H](C[C@H](C)C[C@@H](O)CCCC[C@H](O)C[C@@H](O)[C@@H](C)N)OC(=O)C[C@@H](CC(=O)O)C(=O)O`
a: 2.99 [at 69.3 µM] (inactive)

q: Fill in fold fluorescence for record `c1ccc2c(c1)[I+]c1ccccc1-2`
a: 9.07 [at 179.1 µM] (inactive)

q: Fill in fold fluorescence for record `CCCCC/C=C\C/C=C\C/C=C\C/C=C\CCCC(=O)NCc1ccc(O)c(OC)c1`
a: 5.97 [at 113.7 µM] (inactive)
